molecular target: P2Y12-D84A (Homo sapiens, UniProt Q9H244, D84A); construct: HA (N); test: Intracellular Ca2+ mobilization, HEK293 expressing P2Y12 D84A mutant; details: calcium mobilization, mean ± SEM
Sequence (Q9H244 whole entry D84A): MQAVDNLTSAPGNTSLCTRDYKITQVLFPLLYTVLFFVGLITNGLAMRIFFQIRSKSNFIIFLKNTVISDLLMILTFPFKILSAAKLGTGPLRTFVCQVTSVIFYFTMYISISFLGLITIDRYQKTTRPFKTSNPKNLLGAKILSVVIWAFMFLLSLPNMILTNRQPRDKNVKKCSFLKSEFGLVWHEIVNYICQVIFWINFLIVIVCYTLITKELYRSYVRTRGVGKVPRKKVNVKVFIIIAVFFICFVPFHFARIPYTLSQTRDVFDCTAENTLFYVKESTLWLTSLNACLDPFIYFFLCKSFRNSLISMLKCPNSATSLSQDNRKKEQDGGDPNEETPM
pEC50: −log10 of the molar value.
Readout Type: pEC50

(I) Nc1ncnc2c1ncn2C1OC(COP(=O)(O)OP(=O)(O)OC2OC(CO)C(O)C(O)C2O)C(O)C1O (stereo not drawn) [ADP-Glc, ADP-glucose]
(II) Nc1ncnc2c1ncn2C1OC(COP(=O)(O)OP(=O)(O)OC2OC(C(=O)O)C(O)C(O)C2O)C(O)C1O (stereo not drawn)
Sorting by pEC50 in descending order, would I or II appear first? Response format: the label of the selected entry.
II

====

molecular target: P2Y12-E281A (Homo sapiens, UniProt Q9H244, E281A); construct: HA (N); assay: Intracellular Ca2+ mobilization, HEK293 expressing P2Y12 E281A mutant; settings: calcium mobilization, mean ± SEM
Sequence (Q9H244 whole entry E281A): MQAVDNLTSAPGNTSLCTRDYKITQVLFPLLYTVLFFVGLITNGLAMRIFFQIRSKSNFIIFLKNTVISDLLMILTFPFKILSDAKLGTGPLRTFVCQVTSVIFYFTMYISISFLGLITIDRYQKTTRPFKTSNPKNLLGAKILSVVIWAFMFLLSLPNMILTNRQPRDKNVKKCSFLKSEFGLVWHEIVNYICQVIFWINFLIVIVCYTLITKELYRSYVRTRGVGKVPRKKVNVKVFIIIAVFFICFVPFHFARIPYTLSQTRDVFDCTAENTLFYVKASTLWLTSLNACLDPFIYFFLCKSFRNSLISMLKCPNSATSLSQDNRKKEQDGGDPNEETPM
pEC50: −log10 of the molar value.
Readout Type: pEC50

(A) Nc1ncnc2c1ncn2C1OC(COP(=O)(O)OP(=O)(O)OC2OC(CO)C(O)C(O)C2O)C(O)C1O (stereo not drawn) [ADP-Glc, ADP-glucose]
(B) Nc1ncnc2c1ncn2C1OC(COP(=O)(O)OP(=O)(O)OC2OC(C(=O)O)C(O)C(O)C2O)C(O)C1O (stereo not drawn) [ADP-GlcA, ADP-glucuronic acid]
Sorting by pEC50 in descending order, would A or B appear first? Response format: the label of the selected entry.
B
(B: 4.55, A: 4.12)

====

target: P2Y12-F277A (Homo sapiens, UniProt Q9H244, F277A); construct: HA (N); assay: Intracellular Ca2+ mobilization, HEK293 expressing P2Y12 F277A mutant; conditions: calcium mobilization, mean ± SEM
Sequence (Q9H244 whole entry F277A): as the sequence (Q9H244 whole entry E281A) above, with F277A, A281E counted along it
Readout Type: EC50 (µM)

(1) Nc1ncnc2c1ncn2C1OC(COP(=O)(O)OP(=O)(O)OC2OC(CO)C(O)C(O)C2O)C(O)C1O (stereo not drawn) [ADP-Glc, ADP-glucose]
(2) Nc1ncnc2c1ncn2C1OC(COP(=O)(O)OP(=O)(O)OC2OC(C(=O)O)C(O)C(O)C2O)C(O)C1O (stereo not drawn)
Sorting by EC50 in descending order, would 1 or 2 appear first? Response format: the label of the selected entry.
1
(1: 15.4 µM, 2: 5 µM)
